Biological target: T1, human Calcitonin Gene-Related Peptide (CGRP) (human, not fully specified)
T1 construct: also called hCGRP; Human CGRP
T1 peptide: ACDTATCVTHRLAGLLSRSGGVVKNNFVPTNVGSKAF
Experiment: SPR Biacore 8k; antibody amine-coupled to chip, CGRP as analyte
RECORDED_ENDPOINT: Kd (pM)
Kindly answer with a numeric value in pM, unit omitted.

Specify reported Kd for the binder shown: REMD 128.1 (antibody, human IgG4 S228P, kappa, V domains shown, Humanized full-length IgG (IgG4 constant region, kappa); also called IgG 11 (H3/L3); 11 (H3/L3)) VH: QVQLVQSGAEVVKPGASVKVSCKASGYTFTDYYMNWVKQAPGQGLEWIGDVNPNNGGTHYNQKFKGRVTLTVDTSISTAYMELSRLRSDDTAVYYCASITIVPVYFDFWGQGTLVTVSS VL: DIQLTQSPSFLSTSVGDRVTITCKASQNVGPNVAWYRQKPGKSPKALIYSASYRYSGVPSRFSGSGSGTEFTLTISSLQPEDFATYICQQYNYYPYTFGQGTKLEIKR 1.57

Specify reported Kd for the binder shown: murine-human chimeric IgG4 derived from murine antibody A3 (antibody, V domains shown, also called chimeric antibody) VH: EVQLQQSGPELVKPGASVKISCKASGYTFTDYYMNWVKQSHGKSLEWIGDVNPNNGGTHYNQKFKGKATLTVDKSSSTAYMELRSLTSEDSAVYYCASITIVPVYFDFWGQGTTLTVSS VL: DIVMTQSQKFMSTSVGDRVSVTCKASQNVGPNVAWYRQKPGQSPKALIYSASYRYSGVPDRFTGSGSGTDFTLTISNVQSEDLADYICQQYNYYPYTFGGGTKLEIKR 3.53
